# Tested on: OVCAR-8 ovarian
# experiment.notes: NCI-60 one-dose screen, 48 h (100 = growth as untreated, 0 = no growth, -100 = all killed)
# experimental.setup: 10 µM unless noted
This is part of a sample that, as a whole, favours compounds with a hit. Of some 83,000 tested, about 20% had one in any assay.
readout.type: growth (%)
Only the number, expressed in %, is required.

Q: Specify growth for `CN(C)CCCN1c2nc3ccccc3cc2Sc2cc3ccccc3nc21` , system OVCAR-8 ovarian.
Result: -67

Q: Specify growth for `C=C(C)[C@@H]1C/C=C(/C=O)CC[C@@H]2O[C@@]2(C)CC/C=C(\C)CC1` , system OVCAR-8 ovarian.
Result: 105

Q: Specify growth for `Cn1cc(-c2nc(-c3c[nH]c4ncccc34)cs2)c2cccnc21` , system OVCAR-8 ovarian.
Result: 82.9

Q: Specify growth for `Cn1cc(-c2nc(-c3c[nH]c4ncc(F)cc34)cs2)c2cccnc21` , system OVCAR-8 ovarian.
Result: 105

Q: Specify growth for `COc1ccc(/C=N\Nc2ccc([N+](=O)[O-])cn2)cc1OC` , system OVCAR-8 ovarian.
Result: 14.6

Q: Specify growth for `C[C@]12CC[C@@H]3c4ccc(O)c([N+](=O)[O-])c4CC[C@H]3[C@@H]1CC[C@@H]2NS(=O)(=O)c1cccc(Br)c1` , system OVCAR-8 ovarian.
Result: 40

Q: Specify growth for CC(NC(=O)C(C)Oc1ccc(Cl)cc1Cl)C(=O)O (stereo not given) , system OVCAR-8 ovarian.
Result: 107

Q: Specify growth for `O=C(Nc1ccc(Nc2ccncc2)cc1)c1ccc(Nc2ccnc3ccc([N+](=O)[O-])cc23)cc1[N+](=O)[O-]` , system OVCAR-8 ovarian.
Result: 44.4

Q: Specify growth for `CCCCc1nc(Cl)c(CO)n1Cc1ccc(-c2ccccc2-c2nn[nH]n2)cc1` , system OVCAR-8 ovarian.
Result: 103

Q: Specify growth for `CCOC(=O)/C=C(/C)Sc1cc(O)c2ccccc2c1O` , system OVCAR-8 ovarian.
Result: 24.3
